- Tested on: P. falciparum K1 (CQ-resistant)
- Protocol text: [3H]-hypoxanthine incorporation assay, K1 strain
- Format: cell-based
- Protocol conditions: Plasmodium falciparum, values marked with asterisk: [3H]-hypoxanthine assay, read-out: IC50 growth inhibition K1 (*)
pIC50: −log10 of the molar value.
Measured attribute: pIC50

Consider the worked cases shown below.
O=C(Nc1cccc(C(F)(F)F)c1)c1cc(Cl)ccc1OCC(O)CN1CCC(c2ccccc2)CC1 (stereo not shown) ... 8.46
O=C(Nc1ccc(Br)cc1)c1ccccc1OCC(O)CNCC12CC3CC(CC(C3)C1)C2 (stereo not shown) ... 8.92
O=C(Nc1ccc2ccccc2c1)c1ccccc1OCC(O)CNCC12CC3CC(CC(C3)C1)C2 (stereo not shown) ... 8.74
O=C(Nc1ccc(F)cc1)c1ccccc1OCC(O)CNCC12CC3CC(CC(C3)C1)C2 (stereo not shown) ... 8.70

I: O=C(Nc1ccc(Br)cc1)c1ccccc1OCC(O)CNC12CC3CC(CC(C3)C1)C2 (stereo not shown)
II: O=C(NCCc1ccccc1)c1cc(Cl)ccc1OCC(O)CNC1C2CC3CC(C2)CC1C3 (stereo not shown)
III: CC(NCC(O)COc1ccc(Cl)cc1C(=O)NCc1cccc2ccccc12)C12CC3CC(CC(C3)C1)C2 (stereo not shown)
IV: O=C(Nc1cccc(C(F)(F)F)c1)c1ccccc1OCC(O)CN1CCN(C(c2ccccc2)c2ccccc2)CC1 (stereo not shown)
Ask: Ascending by pIC50, please: list the compounds accordingly. Record the ranking as a list of labels in the requested order.
Result: II, I, III, IV
(II: 7.59, I: 8.15, III: 8.40, IV: 8.89)

a: Cc1ccc(NC(=O)c2ccccc2OCC(O)CN2CCN(C(c3ccccc3)c3ccccc3)CC2)cc1 (stereo not shown)
b: CC(C)CCNC(=O)c1ccccc1OCC(O)CNC(C)C12CC3CC(CC(C3)C1)C2 (stereo not shown)
c: O=C(Nc1ccccc1F)c1ccccc1OCC(O)CN1CCN(C(c2ccccc2)c2ccccc2)CC1 (stereo not shown)
Ask: Ascending by pIC50, please: list the compounds accordingly. Record the ranking as a list of labels in the requested order.
Result: c, b, a

a: O=C(NCc1cccc2ccccc12)c1cc(Cl)ccc1OCC(O)CNCC12CC3CC(CC(C3)C1)C2 (stereo not shown)
b: O=C(Nc1ccc(F)cc1)c1ccccc1OCC(O)CN1CCN(C23CC4CC(CC(C4)C2)C3)CC1 (stereo not shown)
Ask: Which item exceeds the other in pIC50, a or b ? Record your answer as the label of the chosen record.
Result: a
(a: 8.30, b: 7.92)

---

- Tested on: P. falciparum K1 (CQ-resistant)
- Protocol text: [3H]-hypoxanthine incorporation assay, K1 strain
- Format: cell-based
- Protocol conditions: Plasmodium falciparum, values marked with asterisk: [3H]-hypoxanthine assay, read-out: IC50 growth inhibition K1 (*)
pIC50: −log10 of the molar value.
Measured attribute: pIC50

Consider the worked cases shown below.
C=CCc1ccccc1NC(=O)c1ccccc1OCC(O)CNCC12CC3CC(CC(C3)C1)C2 (stereo not drawn) [Compound I-73] ... 7.68
O=C(Nc1ccc(F)cc1F)c1ccccc1OCC(O)CNCC12CC3CC(CC(C3)C1)C2 (stereo not drawn) [Compound I-39] ... 8.52
O=C(Nc1cccc(C(F)(F)F)c1)c1ccccc1OCC(O)CNCC12CC3CC(CC(C3)C1)C2 (stereo not drawn) [Compound I-42] ... 9.30

A: O=C(Nc1ccc(F)cc1)c1ccccc1OCC(O)CN1CCC(Cc2ccccc2)CC1 (stereo not drawn) [Compound I-47]
B: O=C(Nc1cccc(C(F)(F)F)c1)c1ccccc1OCC(O)CN1CCC(Cc2ccccc2)CC1 (stereo not drawn) [Compound I-68]
C: CN(CC(O)COc1ccccc1C(=O)NCc1ccc(C2(C(F)(F)F)N=N2)cc1)C1C2CC3CC(C2)CC1C3 (stereo not drawn) [Compound I-43]
Ask: Ascending by pIC50, please: list the compounds accordingly. Record the ranking as a list of labels in the requested order.
Result: C, A, B
